Numbers sourced from the RNAGym collection of RNA variant scans (doi:10.7554/elife.80360).

B1: CPEB3 Ribozyme (parent)
chain: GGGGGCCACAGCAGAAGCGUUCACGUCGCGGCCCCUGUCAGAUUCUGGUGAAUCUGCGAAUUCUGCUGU

# Variants of: B1
# Assay Text: self-cleavage, relative activity (ratio to wild type); higher = more cleavage; co-transcriptional
Parameter: self-cleavage
Form: value (number only, do not type unit).

# input Please report the recorded self-cleavage for C18G U46C .
# output 0.15

# input What value of measured self-cleavage is listed for C18U U26G ?
# output 0.697

# input GET /values?readout=self-cleavage&item= G1U G31C
# output 0.0835

Next:
# input Given the entry G4C A42U , report its measured self-cleavage.
# output 0.354
